- TARGET_OF_ASSAY: human RAR-related Orphan Receptor gamma (RORg), RORC (gene 6097)
- ASSAY_COMMENT: ATG_RORg_TRANS: Attagene TRANS-FACTORIAL HepG2 Assay for human RAR-related Orphan Receptor gamma (RORg) (AID 2283011)
Inconclusive results are not listed. Active and inactive are the calls of the source. How the source made its calls: active means hit-call score of the fitted dose curve at least 0.9, where 1 is the maximum; inconclusive means response in the unintended direction; inactive means score below 0.9.
Parameter call: string, one of 1.0 = active, 0.0 = inactive

## Input Field: outcome | Entry: `CCCCCCCCSC(=O)Oc1cc(Cl)nnc1-c1ccccc1`
## Output 0.0

## Input Field: outcome | Entry: `ClCC(Cl)CCl`
## Output 0.0

## Input Field: outcome | Entry: CC12CC1(C)C(=O)N(c1cc(Cl)cc(Cl)c1)C2=O (stereo not drawn)
## Output 0.0

## Input Field: outcome | Entry: CC1CN1P(=O)(N1CC1C)N1CC1C (stereo not drawn)
## Output 0.0

## Input Field: outcome | Entry: `BrCCBr`
## Output 0.0

## Input Field: outcome | Entry: `CC(C)(C)CC(C)(C)c1ccc(O)cc1`
## Output 0.0

## Input Field: outcome | Entry: `CCc1ccccc1N`
## Output 0.0

## Input Field: outcome | Entry: `OCc1ccco1`
## Output 0.0

## Input Field: outcome | Entry: `N#CCc1ccc(Cl)cc1`
## Output 0.0

## Input Field: outcome | Entry: `ClCCBr`
## Output 0.0

## Input Field: outcome | Entry: `O=P(O)(O)CN(CP(=O)(O)O)CP(=O)(O)O`
## Output 0.0

## Input Field: outcome | Entry: `CN(CCCC(=O)c1cccnc1)N=O`
## Output 0.0

## Input Field: outcome | Entry: `C=CCc1ccc(OC)cc1`
## Output 0.0

## Input Field: outcome | Entry: `O=C(Nc1ccc2[nH]ccc2c1)c1cc2cc(F)ccc2n1Cc1cccc(F)c1`
## Output 0.0

## Input Field: outcome | Entry: `O=C(CCl)CCl`
## Output 1.0

## Input Field: outcome | Entry: `O=C(c1ccccc1)C(Cl)Cl`
## Output 0.0

## Input Field: outcome | Entry: `CCOP(OCC)OCC`
## Output 0.0

## Input Field: outcome | Entry: `COc1ccccc1OC`
## Output 0.0

## Input Field: outcome | Entry: `COP(=O)(OC)OC`
## Output 0.0

## Input Field: outcome | Entry: `CCc1ccccc1C`
## Output 0.0

## Input Field: outcome | Entry: `Cc1ccccc1N`
## Output 0.0

## Input Field: outcome | Entry: `O=C1CCCN1`
## Output 0.0

## Input Field: outcome | Entry: `COS(=O)(=O)c1ccc(C)cc1`
## Output 0.0

## Input Field: outcome | Entry: `C=CC(=O)OCCCCCC(C)C`
## Output 0.0

## Input Field: outcome | Entry: `ClC(Cl)=C(Cl)C(Cl)=C(Cl)Cl`
## Output 0.0

## Input Field: outcome | Entry: CCCCC(CC)CO[N+](=O)[O-] (stereo not drawn)
## Output 0.0

## Input Field: outcome | Entry: `O=C1C(Cl)=C(Cl)C(=O)c2ccccc21`
## Output 0.0

## Input Field: outcome | Entry: CCC(C)c1cccc(C(C)CC)c1O (stereo not drawn)
## Output 0.0

## Input Field: outcome | Entry: `CC(=[OH+])/C=C(/C)[O-].CC(=[OH+])/C=C(/C)[O-].CC(=[OH+])/C=C(/C)[O-].[Al]`
## Output 0.0

## Input Field: outcome | Entry: CC(C)(c1ccc(OCC2CO2)cc1)c1ccc(OCC2CO2)cc1 (stereo not drawn)
## Output 0.0

## Input Field: outcome | Entry: `COP(=S)(OC)Oc1ccc(Sc2ccc(OP(=S)(OC)OC)cc2)cc1`
## Output 0.0

## Input Field: outcome | Entry: `N#CCCO`
## Output 0.0

## Input Field: outcome | Entry: `COc1ccc(OC)c(C=O)c1`
## Output 0.0
